Would you kindly list log10 Kd for each of these binders?
Study System: SH2 domain of human CRK (human, UniProt P46108 13-118)
Sequence (P46108 other isoform, or with tags, fused parts or gaps): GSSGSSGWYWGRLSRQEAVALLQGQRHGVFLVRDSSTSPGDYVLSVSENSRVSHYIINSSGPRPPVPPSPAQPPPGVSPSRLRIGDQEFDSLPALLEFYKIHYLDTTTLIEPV
Assay Protocol: ITC
Non-standard residues stand in square brackets, D forms with d. No end group written: not given here. pY = N[C@@H](Cc1ccc(OP(=O)(O)O)cc1)C(=O)O
Annotation: log10 of Kd, nM basis.

Field: example entries. Status: answers known.
INSERT INTO measurements (binder, property_measured, reported_result) VALUES
  ('SL[pY]DRPAS [PDGFRA Y762 peptide SL-pYDRP-AS]', 'log10 Kd', 2.99),
  ('DL[pY]QVPPG [p130Cas (Bcar1) Y169 peptide DL-pYQVP-PG]', 'log10 Kd', 3.34),
  ('DL[pY]DVPPG [p130Cas (Bcar1) Y376 peptide DL-pYDVP-PG]', 'log10 Kd', 3.68),
  ('SV[pY]DVPPS [p130Cas (Bcar1) Y310 peptide SV-pYDVP-PS]', 'log10 Kd', 2.81);

Record log10 Kd for all entries; do not skip any.
1. DE[pY]DTPRH [phosphotyrosyl peptide from M. musculus Bcar1 (p130Cas, Y238)]
2. EV[pY]DTPPM [p130Cas (Bcar1) Y271 peptide EV-pYDTP-PM]
3. PH[pY]FVLTS [PLCG1 Y509 peptide PH-pYFVL-TS]
4. AE[pY]QVPTS [Dok7 (Y396) peptide AE-pYQVP-TS]
5. SV[pY]ESPYS [ZAP70 Y315 peptide SV-pYESP-YS]
6. GP[pY]AQPSV [CRK Y221 peptide GP-pYAQP-SV]

[2.10, 3.03, 3.95, 2.63, 3.65, 4.01]
